target: AGTR1 (Homo sapiens); construct: host or cells: Pathunter CHO-K1 AGTR1 β-arrestin cell line (CHO-K1); assay: DiscoveRx IP1 accumulation assay (HTRF), agonist mode, Pathunter CHO-K1 AGTR1 β-arrestin cell line; format: cell-based
Sequence (P30556 whole entry): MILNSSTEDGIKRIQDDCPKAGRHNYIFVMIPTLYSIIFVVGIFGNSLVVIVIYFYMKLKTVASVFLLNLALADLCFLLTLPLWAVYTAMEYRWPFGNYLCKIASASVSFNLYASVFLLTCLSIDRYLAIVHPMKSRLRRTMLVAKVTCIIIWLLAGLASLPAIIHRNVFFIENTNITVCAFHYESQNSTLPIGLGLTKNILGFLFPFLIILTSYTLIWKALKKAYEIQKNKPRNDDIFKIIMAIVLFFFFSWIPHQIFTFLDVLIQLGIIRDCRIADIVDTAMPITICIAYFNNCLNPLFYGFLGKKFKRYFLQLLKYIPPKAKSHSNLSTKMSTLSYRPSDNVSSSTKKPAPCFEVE
measure.name: IP-1 Ymax (%)

In [3]: df
Out[3]:
                                    molecule   measure_name  numeric_result
 0  CCc1nc2c(C)cc(C)nc2n1Cc1ccc(-c2cc(-c3cc(C)ccn3)ccc2C(=O)O)cc1 [Example 193]  IP-1 Ymax (%)            25.0
 1  CCc1nc2c(C)cc(C)nc2n1Cc1ccc(-c2cc(-c3ccccc3)ccc2-c2nn[nH]n2)cc1 [Example 4]  IP-1 Ymax (%)             9.8
 2  CCc1nc2c(C)cc(C)nc2n1Cc1ccc(-c2cc(-c3cccc(OC)c3)ccc2-c2nn[nH]n2)cc1 [Example 20]  IP-1 Ymax (%)             9.9
 3  CCc1nc2c(C)cc(C)nc2n1Cc1ccc(-c2cc(N3CCC(C)CC3)ccc2-c2nn[nH]n2)cc1 [Example 97]  IP-1 Ymax (%)             7.3
 4  CCc1nc2c(C)cc(C)nc2n1Cc1ccc(-c2cc(-n3cnc4ccccc43)ccc2-c2nnn[nH]2)cc1 [Example 222]  IP-1 Ymax (%)             4.9
 5  CCCCC1=NC2(CCOC2)C(=O)N1Cc1ccc(-c2cc(-c3ccccc3)ccc2-c2nnn[nH]2)cc1 (single isomer, unassigned) [Example 146]  IP-1 Ymax (%)             8.3
 6  CCc1nc2c(C)cc(C)nc2n1Cc1ccc(-c2cc(-c3ccccc3)ccc2-c2nnn[nH]2)nc1 [Example 176]  IP-1 Ymax (%)             9.8
 7  CCCCC1=NC2(CCOC2)C(=O)N1Cc1ccc(-c2cc(-c3ccccc3F)ccc2-c2nnn[nH]2)cc1 (single isomer, unassigned) [Example 148]  IP-1 Ymax (%)             6.1
 8  CCc1nc2c(C)cc(C)nc2n1Cc1ccc(-c2cc(-c3ccccc3OC)ccc2-c2nn[nH]n2)cc1 [Example 5]  IP-1 Ymax (%)            15.1
 9  CCc1nc2c(C)cc(C)nc2n1Cc1ccc(-c2cc(-c3cc(C)c(F)cn3)ccc2-c2nn[nH]n2)cc1 [Example 66]  IP-1 Ymax (%)             6.9
10  CCc1nc2c(C)cc(C)nc2n1Cc1ccc(-c2cc(-c3ccc4c(ccn4C)c3)ccc2-c2nn[nH]n2)cc1 [Example 17]  IP-1 Ymax (%)             3.3
11  CCc1nc2c(C)cc(C)nc2n1Cc1ccc(-c2cc(-n3cc(C4CCCC4)nn3)ccc2-c2nnn[nH]2)cc1 [Example 230]  IP-1 Ymax (%)            12.7
12  CCc1nc2c(C)cc(C)nc2n1Cc1ccc(-c2cc(-c3cn(CC4CC4)nn3)ccc2-c2nnn[nH]2)cc1 [Example 237]  IP-1 Ymax (%)            13.7
13  CCc1nc2c(C)cc(C)nc2n1Cc1ccc(-c2cc(-c3cc(F)cc(F)c3)ccc2-c2nn[nH]n2)cc1 [Example 53]  IP-1 Ymax (%)             5.8
14  CCc1nc2c(C)cc(C)nc2n1Cc1ccc(-c2cc(-n3ccc(C)n3)ccc2-c2nnn[nH]2)cc1 [Example 218]  IP-1 Ymax (%)             4.6
15  CCc1nc2c(C)cc(C)nc2n1Cc1ccc(-c2cc(-c3ccccc3C(C)C)ccc2-c2nn[nH]n2)cc1 [Example 3]  IP-1 Ymax (%)            29.9
16  CCc1nc2c(C)cc(C)nc2n1Cc1ccc(-c2cc(-n3cccn3)ccc2-c2nn[nH]n2)cc1 [Example 25]  IP-1 Ymax (%)             6.7
17  CCCCC1=NC2(CCCC2)C(=O)N1Cc1ccc(-c2cc(-c3ccccn3)ccc2-c2nn[nH]n2)cc1 [Example 140]  IP-1 Ymax (%)             4.5
18  CCc1nc2c(C)cc(C)nc2n1Cc1ccc(-c2cc(Oc3cc(Cl)ccn3)ccc2-c2nn[nH]n2)cc1 [Example 251]  IP-1 Ymax (%)            10.9
19  CCCC1=NC2(CCOC2)C(=O)N1Cc1ccc(-c2cc(-c3ccccc3O)ccc2-c2nnn[nH]2)cc1 (single isomer, unassigned) [Example 164]  IP-1 Ymax (%)            17.3
20  CCCCC1=NC2(CCCC2)C(=O)N1Cc1ccc(-c2cc(N3CCC(C)CC3)ccc2-c2nn[nH]n2)cc1 [Example 100]  IP-1 Ymax (%)             6.1
21  CCc1nc2c(C)cc(C)nc2n1Cc1ccc(-c2cc(OCc3ccccc3)ccc2-c2nnn[nH]2)cc1 [Example 212]  IP-1 Ymax (%)             3.8
22  CCc1nc2c(C)cc(C)nc2n1Cc1ccc(-c2cc(-c3cc(OC)ccn3)ccc2-c2nn[nH]n2)cc1 [Example 62]  IP-1 Ymax (%)            22.7
23  CCc1nc2c(C)cc(C)nc2n1Cc1ccc(-c2cc(-c3ccc(F)cn3)ccc2-c2nn[nH]n2)cc1 [Example 65]  IP-1 Ymax (%)            12.2
24  CCc1nc2c(C)cc(C)nc2n1Cc1ccc(-c2cc(-n3cc4ccccc4n3)ccc2-c2nnn[nH]2)cc1 [Example 216]  IP-1 Ymax (%)            10.6
25  CCCCOC(=O)NS(=O)(=O)c1sc(-c2ccccc2C(F)(F)F)cc1-c1ccc(Cn2c(CC)nc3c(C)cc(C)nc32)cc1 [Example 45]  IP-1 Ymax (%)            14.5
26  CCCCC1=NC2(CCCC2)C(=O)N1Cc1ccc(-c2cc(-c3ccccc3)ccc2-c2noc(=O)[nH]2)cc1 [Example 143]  IP-1 Ymax (%)             5.2
27  CCc1nc2c(C)cc(C)nc2n1Cc1ccc(-c2cc(Oc3ccccc3)cc(C)c2-c2nnn[nH]2)cc1 [Example 211]  IP-1 Ymax (%)             8.7
